- TGT: HCMV Towne (pp28-luciferase)
- MEASUREMENT PROTOCOL: pp28-luciferase HCMV Towne assay in HFFs, luciferase activity at 72 hpi
- Type: cell-based, human cytomegalovirus
- PROTOCOL CONDITIONS: pp28-luciferase Towne, HFFs, 72 hpi; read-out: EC50—Towne
MEASUREMENT KIND: EC50 (nM)
Give a bare numeral; the unit nM is implied.

Task: Request body: readout EC50, system HCMV Towne (pp28-luciferase), query Nc1c(S(=O)(=O)c2cccs2)c2nc3ccccc3nc2n1Cc1ccccc1 . Return the value.
Output: 390

Task: What do we get for CCc1ccc(NC(=O)[C@H](Cc2c[nH]c3ccccc23)NC(=O)[C@@H]2Cc3ccccc3CN2)cc1 ?
Output: 640

* * *

- System: non-infected HFFs
- MEASUREMENT PROTOCOL: in vitro
MEASUREMENT KIND: CC50 (µM)
Give just the numeric value; µM need not be written.

Task: Param item = CCc1ccc(NC(=O)[C@H](Cc2c[nH]c3ccccc23)NC(=O)[C@@H]2Cc3ccccc3CN2)cc1 ; retrieve measured CC50.
Output: 86

* * *

- Test system: GCV-resistant HCMV Towne (C607Y mutation in UL97)
- MEASUREMENT PROTOCOL: microbe, parasite or virus in culture
- Type: cell-based, human cytomegalovirus
- PROTOCOL CONDITIONS: Human betaherpesvirus 5, read-out: EC50—GCVR Towne (μM)
MEASUREMENT KIND: EC50 (µM)
Just the number please, in µM, no unit attached.

Task: What does the data say about its EC50? Entry: CCN1CCN(CCCNC(=O)c2ccc3c(c2)sc2nc(-c4ccc(OC)cc4)cn23)CC1
Output: 0.84

* * *

- TGT: pp28-luciferase Towne HCMV
- MEASUREMENT PROTOCOL: Drug combination with GCV, pp28-luciferase Towne, Bliss model
- Format: cell-based, human cytomegalovirus
- PROTOCOL CONDITIONS: combination experiment with GCV, pp28-luciferase; read-out: EC50 (μM) of Compound 2
MEASUREMENT KIND: EC50 (µM)
// note: answer is a bare numeric in µM

Task: # get_value(readout='EC50', item= CCc1ccc(NC(=O)[C@H](Cc2c[nH]c3ccccc23)NC(=O)[C@@H]2Cc3ccccc3CN2)cc1 )
Output: 0.55

Task: Next compound up: Nc1c(S(=O)(=O)c2cccs2)c2nc3ccccc3nc2n1Cc1ccccc1
Output: 0.57

* * *

- Test system: HCMV Towne
- MEASUREMENT PROTOCOL: Add-on and removal assays, luciferase at 72 hpi
- Format: cell-based, human cytomegalovirus
- PROTOCOL CONDITIONS: add-on and removal assays
MEASUREMENT KIND: stage of maximal activity during HCMV replication, in words

{"columns": ["STRUCTURE AS SMILES", "RECORDED MEASUREMENT"],
 "data": [
  ["CCN1CCN(CCCNC(=O)c2ccc3c(c2)sc2nc(-c4ccc(OC)cc4)cn23)CC1", "immediate early-early"],
  ["CCc1ccc(NC(=O)[C@H](Cc2c[nH]c3ccccc23)NC(=O)[C@@H]2Cc3ccccc3CN2)cc1", "immediate early-early"],
  ["CC(C)NC(=O)C1CCN(C(=O)c2cc3sccc3n2Cc2ccc(Cl)cc2)CC1", "early-late stage"],
  ["Nc1c(S(=O)(=O)c2cccs2)c2nc3ccccc3nc2n1Cc1ccccc1", "early-late stage"]
]}

Origin of values: patent US12691114B2
